Target: Phosphatidylinositol 4,5-bisphosphate 3-kinase catalytic subunit delta isoform (Homo sapiens, UniProt O00329)
Sequence (O00329 whole entry): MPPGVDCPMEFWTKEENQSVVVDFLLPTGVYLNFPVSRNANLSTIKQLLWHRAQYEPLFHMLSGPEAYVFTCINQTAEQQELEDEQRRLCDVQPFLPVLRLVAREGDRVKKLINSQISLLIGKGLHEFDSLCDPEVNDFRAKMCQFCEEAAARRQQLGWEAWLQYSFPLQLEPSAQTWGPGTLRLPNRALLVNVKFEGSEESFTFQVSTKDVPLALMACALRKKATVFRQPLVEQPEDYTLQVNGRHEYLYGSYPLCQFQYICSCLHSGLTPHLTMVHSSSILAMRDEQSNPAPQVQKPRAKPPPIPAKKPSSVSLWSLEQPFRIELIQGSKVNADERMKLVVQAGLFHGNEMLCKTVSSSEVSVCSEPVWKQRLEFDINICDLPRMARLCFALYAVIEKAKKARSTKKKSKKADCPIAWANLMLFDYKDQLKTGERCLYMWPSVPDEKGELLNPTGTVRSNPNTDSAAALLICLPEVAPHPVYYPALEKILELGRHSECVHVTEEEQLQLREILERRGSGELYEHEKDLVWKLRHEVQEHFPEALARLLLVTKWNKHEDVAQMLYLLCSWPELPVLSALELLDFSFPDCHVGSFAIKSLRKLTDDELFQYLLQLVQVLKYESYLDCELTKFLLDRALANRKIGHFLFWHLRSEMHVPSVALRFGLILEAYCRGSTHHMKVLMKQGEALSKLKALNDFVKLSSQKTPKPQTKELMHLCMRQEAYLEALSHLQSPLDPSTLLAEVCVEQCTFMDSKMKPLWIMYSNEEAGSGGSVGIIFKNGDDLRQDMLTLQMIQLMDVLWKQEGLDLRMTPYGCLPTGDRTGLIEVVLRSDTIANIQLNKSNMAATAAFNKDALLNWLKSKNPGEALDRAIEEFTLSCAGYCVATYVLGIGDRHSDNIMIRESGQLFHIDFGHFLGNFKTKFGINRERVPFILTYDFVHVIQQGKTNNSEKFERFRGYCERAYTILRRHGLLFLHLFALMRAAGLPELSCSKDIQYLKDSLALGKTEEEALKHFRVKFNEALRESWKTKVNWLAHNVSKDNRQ
Experiment: Inhibition of N-terminal His6-tagged recombinant full length human PI3Kdelta expressed in baculovirus infected Sf21 insect cells incubated for 30 mins by HTRF assay
pIC50: −log10 of the molar value.
quantity_measured: pIC50

- structure_string: "C[C@H]1CC[C@@H](c2nc3cccc(Cl)c3c(=O)n2-c2cccc(F)c2)N1c1nc(N)nc(N)c1C#N"
  quantity_measured: "pIC50"
  quantitative_result: 5.70

1 = C[C@H]1CC[C@@H](c2nc3c(F)cc(F)cc3c(=O)n2-c2cccnc2)N1c1nc(N)nc(N)c1C#N
2 = N#Cc1c(N)nc(N)nc1N1[C@H](c2nc3cccc(Cl)c3c(=O)n2N2CCOCC2)C[C@@H]2CCCC[C@@H]21
3 = COc1cncc(-c2cccc3nc([C@@H]4CC[C@H](C)N4c4nc(N)nc(N)c4C#N)n(-c4cccc(F)c4)c(=O)c23)c1
4 = C[C@H]1CC[C@@H](c2nc3cccc(Cl)c3c(=O)n2-c2cccnc2)N1c1nc(N)nc(N)c1C#N
Task item: Rank items: key pIC50, increasing. Return value: ordered labels per request.
Reply: 2, 1, 4, 3
(2: 4.39, 1: 5.52, 4: 6.00, 3: 6.22)
